protocol notes: NCI Yeast Anticancer Drug Screen. Data for the rad50 strain (AID 155);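 note: 0% = growth of vehicle-only cultures of the same strain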
experimental conditions: S. cerevisiae rad50 strain growth inhibition; at 33.0 µM; active compounds read high
This is part of a sample that, as a whole, favours compounds with a hit. Of some 79,000 tested, about 15% had one in any assay.
property name: growth inhibition (%)
Give just the numeric value; % need not be written.

State the recorded growth inhibition for this entry: CC1CC[C@]2(C(=O)O)CCC3(C)C(=CC(=O)C4[C@@]5(C)CCC(=O)C(C)(C)C5CC[C@]43C)[C@@H]2[C@H]1C (some centres not stated)
98

State the recorded growth inhibition for this entry: CCc1c[n+]([O-])c(C)cc1[N+](=O)[O-]
53

State the recorded growth inhibition for this entry: O=C1NC(=O)c2ccc([N+](=O)[O-])c3cccc1c23
47

State the recorded growth inhibition for this entry: O=C1CC(=O)c2ccccc21
14

State the recorded growth inhibition for this entry: CCCCOC(=O)Nc1ccc(C)c(NC(=O)OCCCC)c1
19

State the recorded growth inhibition for this entry: O=C(/C=C(/c1ccccc1)N1CCCCC1)c1ccccc1
11

State the recorded growth inhibition for this entry: CCc1cc(O)c(Cl)c(C)c1Cl
43

State the recorded growth inhibition for this entry: Cc1cccc(C(C)(C)C)c1NC(=O)C(C#N)C1=C(Cl)C(=O)c2ccccc2C1=O (configuration not stated)
98

State the recorded growth inhibition for this entry: CCN(CC)CCNc1ccc2ncn3c4cc(OC)c(OC)c(=O)c4c(O)c1c23
46

State the recorded growth inhibition for this entry: Cc1cc(O)c(C(C)C)cc1C1(c2cc(C(C)C)c(O)cc2C)OC(=O)c2ccccc21
1

State the recorded growth inhibition for this entry: CC(=O)Nc1ccc2c(c1)-c1ccccc1C2=O
68

State the recorded growth inhibition for this entry: Cc1c(C)c(C)c(CSC(=N)N)c(C)c1C
51

State the recorded growth inhibition for this entry: Oc1ccc2ccccc2c1CCc1c(O)ccc2ccccc12
93

State the recorded growth inhibition for this entry: COC1=C(N)C(=O)c2nc(-c3nc(C(=O)O)c(C)c(-c4ccc(OC)c(OC)c4O)c3N)ccc2C1=O
98

State the recorded growth inhibition for this entry: Cc1cc(C)nc(NS(=O)(=O)c2ccc(Nc3c4ccccc4nc4c(C(=O)NCCO)cccc34)cc2)n1
25

State the recorded growth inhibition for this entry: CC1SC2(C(=O)Nc3ccc(Cl)cc32)N(c2ccc(Cl)cc2)C1=O (configuration not stated)
96

State the recorded growth inhibition for this entry: NC(N)=NS(=O)(=O)c1ccc(Nc2c3ccccc3nc3c(C(=O)NCCO)cccc23)cc1
16

State the recorded growth inhibition for this entry: Cc1ccc2c(c1)C1(SC(C)C(=O)N1c1ccc(Cl)cc1)C(=O)N2 (configuration not stated)
94

State the recorded growth inhibition for this entry: O=C(NNc1ccccc1)c1ccc(Cl)c(Cl)c1
21

State the recorded growth inhibition for this entry: CSc1nnc(SC)nn1
45

State the recorded growth inhibition for this entry: COC(=O)CC1(O)C(/C=C/c2ccccc2)C(C(=O)OC)C(=O)C(C(=O)OC)C1C(=O)OC (configuration not stated)
1

State the recorded growth inhibition for this entry: CCOC(=O)c1ccc(NC(=O)O/N=C(/Cl)C(C)C)cc1
48

State the recorded growth inhibition for this entry: O=C(NCCCNCCN1C(=O)c2cccc3cc([N+](=O)[O-])cc(c23)C1=O)c1cc(-c2ccccc2)nc2ccccc12
64

State the recorded growth inhibition for this entry: COC(=O)C1=C(C(=O)OC)C(C(=O)OC)C(C(=O)OC)C(C(=O)OC)(C(=O)OC)C(C(=O)OC)=C1C(=O)OC (configuration not stated)
25

State the recorded growth inhibition for this entry: CN1CCN(C(=O)/C=C/C(=O)c2ccccc2)CC1
69

State the recorded growth inhibition for this entry: N#CNC(N)=Nc1cc2ccccc2c2ccccc12
96

State the recorded growth inhibition for this entry: c1ccc2c(OCC3CO3)cccc2c1 (configuration not stated)
89

State the recorded growth inhibition for this entry: O=C(Oc1ccc2c(c1)CN(Cc1ccccc1)CO2)c1ccccc1
4

State the recorded growth inhibition for this entry: O=C(c1ccc([N+](=O)[O-])cc1)C1N=NCC1c1ccccc1 (configuration not stated)
7

State the recorded growth inhibition for this entry: COc1oc(C(=O)NC2CCCCC2)c(-c2ccc(Cl)cc2)c1S(=O)(=O)c1ccccc1
83

State the recorded growth inhibition for this entry: O=C(NCCCl)Sc1ccc(Cl)cc1
55

State the recorded growth inhibition for this entry: CC[n+]1oc(C(=O)c2ccc(Cl)cc2)c(-c2ccccc2)c1-c1ccccc1.[Cl][Fe]([Cl])([Cl])[Cl]
62

State the recorded growth inhibition for this entry: CC(NCCN(C)C)C1CCC2C3CCc4cc(O)ccc4C3CCC12C (configuration not stated)
92

State the recorded growth inhibition for this entry: O=c1[nH]c(-c2ccccc2)nc2c1sc1nc3ccccc3n12
-13

State the recorded growth inhibition for this entry: Cc1cc(C(C)(C)CC(C)(C)C)ccc1O
98

State the recorded growth inhibition for this entry: CC(C)(C)c1ccc(NS(=O)(=O)c2ccc(N)cc2)cc1
9

State the recorded growth inhibition for this entry: O=C(O)CNC(=S)Nc1ccccc1
53

State the recorded growth inhibition for this entry: CN(C)CCOC1(Cc2ccc(Cl)cc2Cl)CCC(C(C)(C)C)CC1 (configuration not stated)
99

State the recorded growth inhibition for this entry: CC1=NOC(=O)/C1=C/c1ccc2c(c1)OCO2
49

State the recorded growth inhibition for this entry: CN(C)CCNc1ccc2ncnc3c2c1C(=O)c1ccccc1-3
96

State the recorded growth inhibition for this entry: Cc1ccc(NC(c2ccccc2)c2ccc3cccnc3c2O)cc1 (configuration not stated)
-2

State the recorded growth inhibition for this entry: CN(CCN(C)Cc1ccccc1)Cc1ccccc1
9
